Data provenance is the supplement of paper PMC9116672.

experimentSummary: duplex melting temperature (HRM, EvaGreen); higher = more stable duplex
assaySetup: duplex concentration 1 µM; backbone: PS-PO (listed strand fully phosphorothioate, complement phosphodiester)
Label TRUE when duplex melting temperature is at or above 60 °C; otherwise label FALSE.

Here are 5 sequences together with their reported answers.
| sequenceText | categoryLabel |
| --- | --- |
| GATCTCTCTATCATCGTTTATTGGGTAT | TRUE |
| GATTGTATCATCGACATCACACTACC | TRUE |
| CGTGCAGCACTACTTG | FALSE |
| ACATGACTCATCTTAGCCGGCGAG | TRUE |
| AATGTCGAACAGCAATT | FALSE |

Here is the next item to consider.
Asked: Is duplex melting temperature at least 60 °C? Consider CTCAGAGTAGAGCCGA
Given back: FALSE

----------
experimentSummary: duplex melting temperature (HRM, EvaGreen); higher = more stable duplex
assaySetup: duplex concentration 7.5 µM; backbone: PS-PO (listed strand fully phosphorothioate, complement phosphodiester)
Quick reference: duplex melting temperature of the listed items.
Give a bare numeral; the unit °C is implied.

// solved cases for duplex melting temperature follow
| sequenceText | resultValue |
| --- | --- |
| CCGCTCAGAGTAGAGA | 63 |
| TTCGCGGTCTCCATTA | 64.4 |
| CTAAACTGTTATAGCCGG | 61.7 |

Asked: Any idea what duplex melting temperature was measured for CGATTTTGTCAAGCCT ?
Given back: 58.9

Asked: # query: duplex melting temperature of entry GGTGGCGTTCTT
Given back: 57

Asked: Entry under review: AGGAGTGAATGAAATGG . Reported duplex melting temperature?
Given back: 60.1

Asked: Can you look up the measured duplex melting temperature of GTGGTACAAATGCGACC for me?
Given back: 64.1

Asked: Consider the sequence CACAGCGACATGTATGG and give its measured duplex melting temperature.
Given back: 64.6

Asked: Look at this sequence and give its reported duplex melting temperature. GCGGTTGGTGGCCAAC
Given back: 69

Asked: Look up duplex melting temperature: TTGAAAACCCATGTGC
Given back: 60.6

Asked: Name the recorded duplex melting temperature for TTGTAGTTGACGTTTGTGATTTAGTGAATT .
Given back: 69.3

----------
experimentSummary: duplex melting temperature (HRM, EvaGreen); higher = more stable duplex
assaySetup: duplex concentration 2.5 µM; backbone: PO-PO (both strands phosphodiester DNA)
Measured duplex melting temperature, listed per entry for reference.
Report the value in °C with no unit label.

Here is how some sequences turned out for duplex melting temperature.
| sequenceText | duplex melting temperature (°C) |
| --- | --- |
| CTCAGAGTAGAGCCGA | 65.7 |
| ACTCGCTCTACCTTAAT | 62.9 |
| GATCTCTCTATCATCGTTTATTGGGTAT | 73.9 |
| TAATTATACGAGTAGTTTCTGTCCTG | 72.5 |
| GTGAAACAATGCTGTAG | 62.9 |

Asked: Query (sequence): CGACATGTATGGCACAG ; field requested: duplex melting temperature
Given back: 67.8

Asked: Reported duplex melting temperature for AGAGCGCCCTGCTGCC : what is it?
Given back: 76.8

Asked: Given the entry AGACATCCCATACGAGCATCCA , report its measured duplex melting temperature.
Given back: 75.6

----------
experimentSummary: duplex melting temperature (HRM, EvaGreen); higher = more stable duplex
assaySetup: duplex concentration 5 µM; backbone: PO-PO (both strands phosphodiester DNA)
quantity: duplex melting temperature (°C)
Answer in °C, number only, no unit symbol.

Study these solved cases before continuing.
| sequenceText | duplex melting temperature (°C) |
| --- | --- |
| CAAGCCTCGATTTTGT | 66.8 |
| TTGAAAACCCATGTGC | 64.9 |
| ACGGGTCGTTCCGTG | 71.4 |
| CGACATGTATGGCACAG | 69.9 |
| TTAACCTGCAATGGATC | 65.1 |

Consider now this further sequence.
Asked: Recorded duplex melting temperature of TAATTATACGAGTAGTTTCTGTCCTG , please.
Given back: 73.6
